# CONDITION CONTEXT: 1 h, pH 7.4
Counter-ions that a name gives are not always drawn.
Lab note: compare Percent parent compound remaining at 60 minutes in liver microsomes, Monkey with 90%, writing satisfied if less and not satisfied if equal or more.

> print(dat)
                                   compound    label.class
1  CCC=C1C2CC3(C(=S)N[C@H]4CC[C@H](N)CC4)CC1CC(c1ccccc1)(C2)C3 (relative stereo) [Example D2]  not satisfied
2  N[C@H]1CC[C@H](NC(=O)C23CC4CC(CCl)(C2)CC(c2ccccc2)(C4)C3)CC1 (mixture of isomers) [Example E1, hydrochloride]      satisfied
3  CC1(C)CN(C(=S)[C@@]23C[C@H]4C[C@@](C)(C2)C[C@](c2ccccc2)(C4)C3)CC[C@@H]1N      satisfied
4  CCC1C2CC3(C(=O)N[C@H]4CC[C@H](N)CC4)CC1CC(c1ccccc1)(C2)C3 (stereo partly shown)  not satisfied
5  CCCC1C2CC3(C(=O)N[C@H]4CC[C@H](N)CC4)CC1CC(c1ccccc1)(C2)C3 (stereo partly shown)  not satisfied
